# Tested on: SF-295 CNS
# protocol_description: NCI tumour cell line growth inhibition, 48 h
TGI by entry:

Below are worked cases with known answers.
| smiles_notation | TGI |
| --- | --- |
| C=CCCCn1ccc2ccccc21 | > 100 µM |
| C#CCSc1n[nH]c(-c2ccco2)n1 | > 100 µM |

Here is the next item to consider.
Let me check: "CC1(C)C(C#N)=[N+]([O-])C(C)(C)N1O" , system SF-295 CNS, measured TGI is > 100 µM

* * *

TGI by entry:
# System: MALME-3M melanoma
# protocol_description: NCI tumour cell line growth inhibition, 48 h

| compound | result |
| --- | --- |
| Cc1cccc(O)c1-c1nnc(CCCCCCCCc2nnc(-c3c(C)cccc3O)n2N)n1N | > 100 µM |
| O=c1c(-c2c(-c3ccccc3)oc3ccc(Cl)cc3c2=O)c(-c2ccccc2)oc2ccc(Cl)cc12 | > 100 µM |
| COc1cc2c(F)nccc2cc1C(=O)N[C@@H](c1ccc(F)c(Cl)c1)[C@@H]1C[C@@H](O)CN1 | 15.4 µM |
| CN(C)CC1CCCC(CN2CCCCC2)C1=O (configuration not stated) | 6.5 µM |
| O=C(/C=C/c1ccc(O)c(O)c1)OC1C[C@@](O)(C(=O)O)C[C@@H](O)[C@H]1OC(=O)/C=C/c1ccc(O)c(O)c1 (some centres not stated) | > 100 µM |

Memo: "O=c1cc(-c2ccccc2)oc2cc(OCC(O)COc3ccc4c(=O)cc(-c5ccccc5)oc4c3)ccc12" , reported TGI: > 100 µM

Memo: CC1(C)Oc2ccc3c(=O)c(-c4ccccc4)c(-c4ccccc4)oc3c2C1C(=O)O (configuration not stated) , reported TGI: > 100 µM
